Reported pEC50 values for the following molecules.
# assay-target: human FPR2 (Homo sapiens (Human), UniProt P25090)
# Sequence (P25090 whole entry): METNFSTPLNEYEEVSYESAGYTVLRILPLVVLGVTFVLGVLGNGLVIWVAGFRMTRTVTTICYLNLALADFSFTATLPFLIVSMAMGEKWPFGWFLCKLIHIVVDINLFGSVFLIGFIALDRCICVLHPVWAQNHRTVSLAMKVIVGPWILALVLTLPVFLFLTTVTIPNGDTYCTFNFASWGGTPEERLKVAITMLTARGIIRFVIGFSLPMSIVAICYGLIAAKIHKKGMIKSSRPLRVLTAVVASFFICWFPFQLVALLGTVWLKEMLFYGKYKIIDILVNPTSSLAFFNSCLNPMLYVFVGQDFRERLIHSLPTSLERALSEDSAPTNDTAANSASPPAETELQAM
# run-description: FPR2 cyclic adenosine monophosphate (cAMP) assay
# reported-conditions: CHO cells overexpressing human FPR2; forskolin 5 µM; inhibition of cAMP production; read-out: hFPR2 cAMP2 EC50
pEC50: −log10 of the molar value.

molecule | pEC50
COc1cc(F)c([C@@H]2CN(c3nc(C(F)(F)F)ccc3C)C(=O)[C@H]2NC(=O)c2ccc(OC(F)F)cc2)c(F)c1 [Example 204] | 8.28
COc1ccc([C@@H]2CN(c3c(C)ccn(CC4CCOCC4)c3=O)C(=O)[C@H]2NC(=O)c2ccc(OC(F)F)cc2)cc1 [Example 699] | 8.18
COc1ccc([C@@H]2CN(c3cccn(CC(OC)C(F)(F)F)c3=O)C(=O)[C@H]2NC(=O)c2ccc(OC(F)F)cc2)cc1 (stereo partly drawn) [Example 416] | 8.77
COc1ccc([C@@H]2CN(c3c(C)ccn(CC4CC4)c3=O)C(=O)[C@H]2NC(=O)c2ccc(Cl)cc2)cc1 [Example 385] | 8.15
COc1cc(F)c([C@@H]2CN(CC3CC3)C(=O)[C@H]2NC(=O)c2ccc(OC(F)F)cc2)c(F)c1 [Example 3] | 7.54
Cc1ccn(CC(F)F)c(=O)c1N1C[C@@H](c2ccc(Cl)cc2)[C@H](NC(=O)c2ccc(OC(F)F)cc2)C1=O [Example 415] | 8.17

* * *

Parameter: pEC50. Scope: all listed entries.
# assay-target: UniProt:P21462
# Sequence (P21462 whole entry): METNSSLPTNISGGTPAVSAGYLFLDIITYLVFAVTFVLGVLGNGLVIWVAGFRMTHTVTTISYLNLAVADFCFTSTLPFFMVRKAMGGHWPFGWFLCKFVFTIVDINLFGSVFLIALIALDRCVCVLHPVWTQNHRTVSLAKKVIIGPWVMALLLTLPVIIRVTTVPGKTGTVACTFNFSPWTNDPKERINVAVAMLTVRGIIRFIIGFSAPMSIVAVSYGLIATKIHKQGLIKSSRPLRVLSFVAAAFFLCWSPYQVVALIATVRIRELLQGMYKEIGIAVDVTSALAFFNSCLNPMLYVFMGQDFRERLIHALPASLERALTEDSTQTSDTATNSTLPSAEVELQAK
# run-description: FPR1 cyclic adenosine monophosphate (cAMP) assay
# reported-conditions: CHO cells overexpressing human FPR1; forskolin 10 µM; inhibition of cAMP production; read-out: hFPR1 cAMP EC50
pEC50: −log10 of the molar value.

compound | pEC50
COc1cc(F)c([C@@H]2CN(c3ncccc3F)C(=O)[C@H]2NC(=O)c2ccc(OC(F)(F)F)cc2)c(F)c1 | 5.96
COCCn1cc(C)c(C)c(N2C[C@@H](c3c(F)cc(OC)cc3F)C(NC(=O)c3ccc(Cl)cc3)C2=O)c1=O (some centres unmarked) [Example 641] | 6.00
COCC(C(=O)N(C)C)n1ccc(C)c(N2C[C@@H](c3c(F)cc(OC)cc3F)[C@H](NC(=O)c3ccc(OC(F)(F)F)cc3)C2=O)c1=O (some centres unmarked) | 9.15
COc1cc(F)c([C@@H]2CN(c3c(C)ccn(CC(O)C4CC4)c3=O)C(=O)[C@H]2NC(=O)c2ccc(OC(F)F)cc2)c(F)c1 (some centres unmarked) [Example 682] | 9.00
COc1cc(F)c([C@@H]2CN(c3cccn(CC(C)(CO)CO)c3=O)C(=O)[C@H]2NC(=O)c2ccc(OC(F)(F)F)cc2)c(F)c1 [Example 254] | 7.28

* * *

# assay-target: UniProt:P21462
# run-description: FPR1 cyclic adenosine monophosphate (cAMP) assay
# reported-conditions: CHO cells overexpressing human FPR1; forskolin 10 µM; inhibition of cAMP production; read-out: hFPR1 cAMP EC50
Entries and their log10 of EC50
reported-property: log10 of EC50 (log10 of the value in nM)

compound | assay-target | readout-number
COCCOc1ncccc1N1C[C@@H](c2c(F)cc(OC)cc2F)[C@H](NC(=O)c2ccc(OC(F)F)cc2)C1=O | UniProt:P21462 | 1.97
COCC(CO)n1cccc(N2C[C@@H](c3c(F)cc(OC)cc3F)[C@H](NC(=O)c3ccc(OC(F)(F)F)cc3)C2=O)c1=O (stereo partly shown) [Example 153] | UniProt:P21462 | 0.62
COc1cc(F)c([C@@H]2CN(c3cccn4c(C)nnc34)C(=O)[C@H]2NC(=O)c2ccc(Cl)cc2)c(F)c1 | UniProt:P21462 | 1.75
COc1ccc([C@@H]2CN(c3c(C)ccn(CC(F)F)c3=O)C(=O)[C@H]2NC(=O)c2ccc(OC(F)F)cc2)c(F)c1 | UniProt:P21462 | 0.60
COc1cc(F)c([C@@H]2CN(c3cccn(CCO)c3=O)C(=O)[C@H]2NC(=O)c2ccc(Cl)cc2)c(F)c1 | UniProt:P21462 | 2.53
COCCOc1ncccc1N1C[C@@H](c2c(F)cc(OC)cc2F)[C@H](NC(=O)c2ccc(OC(F)(F)F)cc2)C1=O | UniProt:P21462 | 0.95
CCn1cccc(N2C[C@@H](c3ccc(Cl)cc3)[C@H](NC(=O)c3ccc(OC(F)(F)F)cc3)C2=O)c1=O | UniProt:P21462 | 0.64
CCN1CCC(N2C[C@@H](c3c(F)cc(OC)cc3F)[C@H](NC(=O)c3ccc(OC(F)F)cc3)C2=O)C1=O (stereo partly shown) | UniProt:P21462 | 1.88
COc1cc(F)c([C@H]2[C@H](NC(=O)c3ccc(OC(F)F)cc3)C(=O)N(c3cccc(C4CCCN(C)C4)n3)[C@H]2C)c(F)c1 (stereo partly shown) [Example 512] | UniProt:P21462 | 3.32
CCn1cccc(N2C[C@@H](c3ccc(OC)cc3)[C@H](NC(=O)c3ccc(OC(F)(F)F)cc3)C2=O)c1=O | UniProt:P21462 | 0.80
COc1cc(F)c([C@@H]2CN(c3cncn(C4CCNC4)c3=O)C(=O)[C@H]2NC(=O)c2ccc(Cl)cc2)c(F)c1 (stereo partly shown) [Example 714] | UniProt:P21462 | 3.56
COc1cc(F)c([C@@H]2CN(c3c(C)c4c(n(CCO)c3=O)CCCC4)C(=O)[C@H]2NC(=O)c2ccc(OC(F)(F)F)cc2)c(F)c1 | UniProt:P21462 | 1.72
COc1cc(F)c([C@H]2[C@H](NC(=O)c3ccc(OC(F)F)cc3)C(=O)N(c3cccc(C4CCN(C)CC4)n3)[C@H]2C)c(F)c1 | UniProt:P21462 | 3.56
CCn1ccc(C)c(N2C[C@@H](c3ccc(OC)cc3F)[C@H](NC(=O)c3ccc(OC(F)(F)F)cc3)C2=O)c1=O | UniProt:P21462 | -0.22
COc1cc(F)c([C@@H]2CN(c3cccn(CCF)c3=O)C(=O)[C@H]2NC(=O)c2ccc(OC(F)F)cc2)c(F)c1 | UniProt:P21462 | 1.92
COCC(C(=O)N(C)C)n1cccc(N2C[C@@H](c3ccc(Cl)cc3)[C@H](NC(=O)c3ccc(OC(F)(F)F)cc3)C2=O)c1=O (stereo partly shown) | UniProt:P21462 | 0.04
